target of assay: T1, full length human tau protein 2N4R (hT40) (human, UniProt P10636 1-758)
T1 construct: recombinant; also called T441
T1 sequence (P10636 other isoform, or with tags, fused parts or gaps limits assumed): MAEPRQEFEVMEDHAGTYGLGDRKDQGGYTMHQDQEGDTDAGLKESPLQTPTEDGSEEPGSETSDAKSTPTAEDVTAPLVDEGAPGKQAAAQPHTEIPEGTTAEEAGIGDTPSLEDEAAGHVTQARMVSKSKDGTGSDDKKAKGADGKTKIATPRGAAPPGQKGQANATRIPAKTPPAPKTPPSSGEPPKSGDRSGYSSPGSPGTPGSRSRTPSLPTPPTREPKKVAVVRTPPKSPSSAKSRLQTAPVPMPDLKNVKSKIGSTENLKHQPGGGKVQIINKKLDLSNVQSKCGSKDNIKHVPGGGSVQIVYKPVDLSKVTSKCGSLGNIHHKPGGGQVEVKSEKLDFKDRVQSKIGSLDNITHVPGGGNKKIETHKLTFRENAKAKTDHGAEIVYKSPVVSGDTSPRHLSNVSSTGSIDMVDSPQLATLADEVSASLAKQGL
method summary: SPR, hT40 immobilised, mAb analyte
# key: entry, value: kon

binder	output unit	kon
S1G2 mAb (antibody, mouse IgG2a, V domains shown, sheep-mouse IgG2a chimeric mAb; also called S1G2 antibody) VH: QVQLQESGPSLVKPSQTLSLTCTVSGFSLTSNSVGWVRQAPGKAPEWVAGIDTDGEEGYNPALNSRLSITRDTSKSQVSLSLSSVTSEDTAVYYCGRSYRADGLAYGYVQAIDYWGPGLLVTVSS VL: QAVVTQPSSVSGSLGQRVSITCSGSFIGISSVGWFQQLPGSGLRTIIVASDGRPSGVPDRFSMSKSGNTATLTISSLQAEDEADYFCGSSDRTPYTGVFGSGTRLTVLG	M⁻¹ s⁻¹	340000
CB7 mAb (antibody, mouse IgG2a, V domains shown, sheep-mouse IgG2a chimeric mAb; also called CB7 antibody) VH: QVQLQESGPSLVKPSQTLSLTCTVSGFSLTNYRVGWVRQAPGKALEWVSNIRSGGTTWYNPALKSRLSITADTSKSQVSLSLSSVTTEDTAVYYCARDSSGDLYAYDYWGPGLLVTVSS VL: QAVLTQPSSVSRSLGQSVSMTCSGSSSNVGYGNYMAWFQQVPGSAPKLLIYGATSRASGVPDRFSGSRSGNTATLTISSLQAEDEADYYCASYDSTSGGVFGSGTRLTVLG	M⁻¹ s⁻¹	2.57e+06
